- assayedTarget: PGR (gene 5241)
- experimentNotes: TOX21_PR_LUC_Followup_Antagonist: Tox21 HEK293 Progesterone Receptor (PR) Antagonism Luciferase Follow-Up Assay (AID 2283938);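 note: curve fitted upward as signal gain over DMSO baseline despite antagonist label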
- From the text: TOX21_PR_LUC_Followup is a secondary assay for specificity for the TOX21_PR_BLA_Agonist assay. To differentiate true PR agonists from cytotoxic substances, this follow up assay is multiplexed with a cell viability assay.TOX21_PR_LUC_Followup_Antagonist is one of one assay component(s) measured or calculated from the TOX21_PR_LUC_Followup assay. […] Furthermore, this assay endpoint can be referred to as a primary readout, because the performed assay has only produced 1 assay endpoint. […]
Records with an inconclusive call do not appear. Calls of active or inactive are those of the source. Rule for the calls: active = hit-call score of the fitted dose curve at least 0.9, where 1 is the maximum; inconclusive = response in the unintended direction; inactive = score below 0.9.
Allowed answers: active, inactive

Record excerpt, results attached:
- molecule: "CC(COc1ccccc1)N(CCCl)Cc1ccccc1 (stereo unspecified)"
  assignedClass: "inactive"
- molecule: "COC(=O)C1=C(C)NC(COC(N)=O)=C(C(=O)OC(C)C)C1c1cccc(Cl)c1Cl (stereo unspecified)"
  assignedClass: "active"
- molecule: "CC(=O)Oc1ccc2c(c1)CC[C@@H]1[C@@H]2CC[C@]2(C)[C@@H](O)CC[C@@H]12"
  assignedClass: "active"
- molecule: "COC(=O)C(c1ccccc1Cl)N1CCc2sccc2C1 (stereo unspecified)"
  assignedClass: "active"
- molecule: "CCCCN1CCCC1C(=O)Nc1c(C)cc(C)cc1C (stereo unspecified)"
  assignedClass: "inactive"
- molecule: "O=[N+]([O-])c1ccc2c(c1)Cc1ccccc1-2"
  assignedClass: "active"
- molecule: "CCOC(=O)C1=C(C)NC(C)=C(C(=O)OC)C1c1cccc([N+](=O)[O-])c1 (stereo unspecified)"
  assignedClass: "active"
- molecule: "Oc1ccc2c(c1)Cc1ccccc1-2"
  assignedClass: "active"

*Q* Recorded test call requested for CC1(C)CCC(C)(C)c2cc(NC(=O)c3ccc(C(=O)O)cc3)ccc21
*A* inactive

*Q* # lookup: test call for COC(=O)C1=C(C)NC(C)=C(C(=O)OCC(C)=O)C1c1ccccc1[N+](=O)[O-] (stereo unspecified)
*A* active

*Q* Dear all, I need the recorded test outcome for CC(=O)OCC(=O)[C@@]1(OC(C)=O)[C@@H](C)C[C@H]2[C@@H]3C[C@H](F)C4=CC(=O)C=C[C@]4(C)[C@@]3(F)[C@@H](O)C[C@@]21C , thank you.
*A* inactive
